# TARGET_ENTITY: GDP-bound KRAS protein (aa 1-169), containing both G12C and C118A amino acid substitutions (Homo sapiens, UniProt P01116, C118A/G12C)
# Sequence (P01116 1-169 isoform P01116-2 G12C/C118A): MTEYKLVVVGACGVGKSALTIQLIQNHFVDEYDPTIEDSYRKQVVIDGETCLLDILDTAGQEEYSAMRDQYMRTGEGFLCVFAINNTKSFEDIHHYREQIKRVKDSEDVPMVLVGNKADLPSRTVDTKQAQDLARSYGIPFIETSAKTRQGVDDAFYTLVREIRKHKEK
# EXPERIMENT_NOTES: Coupled nucleotide exchange assay (SOS-mediated, AlphaScreen)
# Type: biochemical
# CONDITION_LABEL: 5 min compound pre-incubation
ENDPOINT_LABEL: Coupled exchange IC50 (5 min)

- MOLECULE: "C=CC(=O)N1CCN(c2nc(=O)n(-c3c(C)ccnc3C(C)C)c3nc(Cl)c(Cl)cc23)[C@@H](C)C1 (atropisomer, axis not shown; (M)) [Example 61-2-2]"
  Coupled exchange IC50 (5 min): "2.37 | nda μM"
- MOLECULE: "C=CC(=O)N1CCN(c2nc(=O)n(-c3c(O)cccc3C(C)C)c3nc(-c4ccccc4F)c(Cl)cc23)[C@@H](C)C1 (single isomer, unassigned) [Example 55-26-2]"
  Coupled exchange IC50 (5 min): "0.031 | nda μM"
- MOLECULE: "C=CC(=O)N1CCN(c2nc(=O)n(-c3c(C4CC4)ccnc3C)c3nc(-c4ccccc4F)c(F)cc23)[C@@H](C)C1 (single isomer, unassigned) [Example 58-20-1]"
  Coupled exchange IC50 (5 min): "16.2 | nda μM"

get_value(item= C=CC(=O)N1CCN(c2nc(=O)n(-c3ccccc3C(C)C)c3nc(N(C)C(C)C)c(Cl)cc23)[C@@H](C)C1 [Example 69-6] , readout=Coupled exchange IC50 (5 min)) returns 13.7 | nda μM

###

# TARGET_ENTITY: GDP-bound KRAS protein (aa 1-169), containing both G12C and C118A amino acid substitutions (Homo sapiens, UniProt P01116, C118A/G12C)
# EXPERIMENT_NOTES: Coupled nucleotide exchange assay (SOS-mediated, AlphaScreen)
# Format: biochemical
# CONDITION_LABEL: 5 min compound pre-incubation
ENDPOINT_LABEL: Coupled exchange IC50 (5 min)

- COMPOUND: "C=CC(=O)N1CCN(c2nc(=O)n(-c3ccccc3C(C)C)c3nc(-c4cccs4)c(Cl)cc23)[C@@H](C)C1 (single isomer, unassigned) [Example 67-4-1]"
  Coupled exchange IC50 (5 min): "7.34 | nda μM"
- COMPOUND: "C=CC(=O)N1CCN(c2nc(=O)n(-c3c(CC)cccc3CC)c3nc(-c4cccnc4C)c(Cl)cc23)[C@@H](C)C1"
  Coupled exchange IC50 (5 min): "7.19 | nda μM"
- COMPOUND: "C=CC(=O)N1CCN(c2nc(=O)n(-c3ncccc3CC)c3nc(-c4ccccc4F)c(Cl)cc23)[C@@H](C)C1"
  Coupled exchange IC50 (5 min): "0.564 | nda μM"
- COMPOUND: "C=CC(=O)N1CCN(c2nc(=O)n(-c3ccccc3C3(C)CC3)c3nc(-c4ccccc4F)c(Cl)cc23)[C@@H](C)C1 (single isomer, unassigned) [Example 54-99-2]"
  Coupled exchange IC50 (5 min): "0.094 | nda μM"

get_value(item= C=CC(=O)N1CCN(c2nc(=O)n(-c3c(C)cc(CN(C)C)cc3C(C)C)c3nc(-c4ccccc4F)c(Cl)cc23)[C@@H](C)C1 [Example 80-1] , readout=Coupled exchange IC50 (5 min)) returns 0.08 | nda μM

get_value(item= C=CC(=O)N1CCN(c2nc(=O)n(-c3c(F)cccc3C(C)C)c3nc(-c4ccccc4F)c(F)cc23)[C@@H](C)C1 (single isomer, unassigned) [Example 59-3-2] , readout=Coupled exchange IC50 (5 min)) returns 33 | nda μM

get_value(item= C=CC(=O)N1CCN(c2nc(=O)n(-c3ccccc3C(C)C)c3nc(-c4cc(O)ccc4Cl)c(Cl)cc23)[C@@H](C)C1 (single isomer, unassigned) [Example 54-90-1] , readout=Coupled exchange IC50 (5 min)) returns 0.047 | nda μM

get_value(item= "C=CC(=O)N1C[C@@H](C)N(c2nc(=O)n(-c3c(C(C)C)ncnc3C(C)C)c3nc(-c4ccccc4F)c(Cl)cc23)[C@H](C)C1" , readout=Coupled exchange IC50 (5 min)) returns 17.3 | nda μM

get_value(item= C=CC(=O)N1CCN(c2nc(=O)n(-c3ccccc3C(C)C)c3nc(-c4cc(OC(F)F)ccc4F)c(Cl)cc23)[C@@H](C)C1 [Example 54-51] , readout=Coupled exchange IC50 (5 min)) returns 0.265 | nda μM

get_value(item= C=CC(=O)N1CCN(c2nc(=O)n(-c3c(C)ccnc3C(C)C)c3nc(-c4cc(F)ccc4O)c(F)cc23)C(C)C1 (atropisomer, axis not shown; (M)) , readout=Coupled exchange IC50 (5 min)) returns 1.17 | nda μM

get_value(item= "C=CC(=O)N1CCN(c2nc(=O)n(CC3(C(F)(F)F)CC3)c3nc(-c4c(O)cccc4F)c(Cl)cc23)CC1" , readout=Coupled exchange IC50 (5 min)) returns 1.02 µM

get_value(item= C=CC(=O)N1CCN(c2nc(=O)n(-c3c(C)ccnc3C(C)C)c3nc(-c4ccccc4F)c(C)nc23)[C@@H](C)C1 (single isomer, unassigned) [Example 143-1] , readout=Coupled exchange IC50 (5 min)) returns 2.72 | nda μM

src = patent US11090304B2
